Molecular target: CYP3A4 (Homo sapiens)
Sequence (P08684 whole entry): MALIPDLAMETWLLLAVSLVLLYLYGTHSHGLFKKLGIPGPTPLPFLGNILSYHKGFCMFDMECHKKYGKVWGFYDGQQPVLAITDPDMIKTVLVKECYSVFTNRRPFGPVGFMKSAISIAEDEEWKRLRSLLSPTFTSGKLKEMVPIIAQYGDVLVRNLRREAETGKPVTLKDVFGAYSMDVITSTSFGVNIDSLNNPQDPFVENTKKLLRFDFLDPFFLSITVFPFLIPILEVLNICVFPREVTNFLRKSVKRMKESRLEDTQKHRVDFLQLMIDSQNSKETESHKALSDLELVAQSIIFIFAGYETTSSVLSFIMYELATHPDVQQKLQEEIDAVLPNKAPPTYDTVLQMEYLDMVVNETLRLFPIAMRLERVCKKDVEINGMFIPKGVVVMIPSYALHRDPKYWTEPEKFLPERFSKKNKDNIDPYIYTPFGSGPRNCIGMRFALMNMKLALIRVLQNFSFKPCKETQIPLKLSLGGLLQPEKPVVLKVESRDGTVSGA
Test: CYP3A4 inhibition assay
Type: biochemical
Binary label based on IC50 with cut-off 2000 nM: below gives fulfilled, not below gives not fulfilled.

Example cases with answers are listed next.
INSERT INTO assay_data (compound, experimental_target, qualitative_label) VALUES
  ('O=C(C=Cc1ccccc1)OCCCc1cc2c(cc1OCc1ccccc1)OCO2 [Compound 11e]', 'CYP3A4 (Homo sapiens)', 'not fulfilled'),
  ('COc1c(CCCOC(=O)c2ccc(Cl)cc2)cc2c(c1OC)OCO2', 'CYP3A4 (Homo sapiens)', 'fulfilled'),
  ('COc1c(CC(C)OC(=O)c2ccccc2)cc2c(c1OC)OCO2 (centres unmarked)', 'CYP3A4 (Homo sapiens)', 'not fulfilled'),
  ('O=C(OCCCc1cc2c(cc1OCc1ccccc1)OCO2)C(c1ccccc1)c1ccccc1 [Compound 11g]', 'CYP3A4 (Homo sapiens)', 'fulfilled'),
  ('COc1c(CC(C)OC(C)=O)cc2c(c1OC)OCO2 (centres unmarked)', 'CYP3A4 (Homo sapiens)', 'not fulfilled'),
  ('COc1c(CCCOC(=O)c2ccccc2Cl)cc2c(c1OC)OCO2', 'CYP3A4 (Homo sapiens)', 'fulfilled'),
  ('COc1c(CCCOC(=O)C=Cc2ccccc2)cc2c(c1OC)OCO2', 'CYP3A4 (Homo sapiens)', 'not fulfilled');

For COc1cc2c(cc1CCCOC(=O)C=Cc1ccccc1)OCO2 [Compound 11d] , is the recorded IC50 below the cut-off of 2000 nM?
not fulfilled
